Field: hERG blockade. Provide a value for each of the molecules that follow.
molecular target: Voltage-gated inwardly rectifying potassium channel KCNH2 (Homo sapiens) (UniProt Q12809); experiment: KCNH2 potassium channel function modulators, cell-based (AID 376); conditions: hERG-expressing cells, channel activity single-concentration screen; concentration not given here;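 further: 0% = buffer alone and 100% = reference blocker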
Sequence (Q12809 whole entry, looked up): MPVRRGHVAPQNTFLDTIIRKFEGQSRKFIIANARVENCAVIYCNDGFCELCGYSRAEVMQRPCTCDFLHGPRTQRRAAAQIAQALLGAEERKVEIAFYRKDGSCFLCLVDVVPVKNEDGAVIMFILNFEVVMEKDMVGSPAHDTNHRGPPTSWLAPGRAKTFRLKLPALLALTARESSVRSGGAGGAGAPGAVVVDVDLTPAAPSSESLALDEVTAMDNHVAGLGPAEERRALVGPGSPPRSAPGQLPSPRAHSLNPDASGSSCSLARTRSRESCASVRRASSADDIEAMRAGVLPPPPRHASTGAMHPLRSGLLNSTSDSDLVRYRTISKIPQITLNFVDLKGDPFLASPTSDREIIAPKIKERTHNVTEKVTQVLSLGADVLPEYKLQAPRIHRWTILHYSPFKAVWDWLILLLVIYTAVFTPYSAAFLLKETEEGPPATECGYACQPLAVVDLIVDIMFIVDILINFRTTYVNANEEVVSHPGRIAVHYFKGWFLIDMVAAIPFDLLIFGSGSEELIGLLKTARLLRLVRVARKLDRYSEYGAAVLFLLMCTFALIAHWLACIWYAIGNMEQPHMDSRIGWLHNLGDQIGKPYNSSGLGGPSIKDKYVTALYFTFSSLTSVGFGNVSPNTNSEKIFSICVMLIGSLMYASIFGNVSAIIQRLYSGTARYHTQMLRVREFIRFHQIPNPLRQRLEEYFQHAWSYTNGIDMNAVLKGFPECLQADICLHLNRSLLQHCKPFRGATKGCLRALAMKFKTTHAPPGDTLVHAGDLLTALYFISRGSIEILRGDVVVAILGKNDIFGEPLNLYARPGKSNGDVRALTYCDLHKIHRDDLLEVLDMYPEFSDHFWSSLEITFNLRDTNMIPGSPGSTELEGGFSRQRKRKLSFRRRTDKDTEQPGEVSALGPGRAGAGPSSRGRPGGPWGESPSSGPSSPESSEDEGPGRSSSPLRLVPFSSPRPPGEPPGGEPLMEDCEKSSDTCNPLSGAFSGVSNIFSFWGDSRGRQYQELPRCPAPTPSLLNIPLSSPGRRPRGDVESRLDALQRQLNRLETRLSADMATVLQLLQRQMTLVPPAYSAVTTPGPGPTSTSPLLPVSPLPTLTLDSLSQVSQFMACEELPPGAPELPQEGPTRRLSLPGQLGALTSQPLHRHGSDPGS
About 250 (12%) of roughly 2,000 compounds were called active. The list comes from a sample in which actives are over-represented; it also holds close analogues and randomly drawn compounds.
Give bare numbers, in %.

1) O=C(O)c1c(Cl)c(Cl)c(Cl)c(Cl)c1C(=O)Nc1ccc2cn[nH]c2c1 | 9.23
2) C=C(Br)CN(C)CC(=C)Br | -27.2
3) C=CCC(C(=O)O)c1ccccc1 (configuration not stated) | -1.33

The following molecules each have a reported value; give each one's hERG blockade.
1. CN(CC(=O)O)CC(=O)O
2. C[N+]1(C(CO)Cc2c[nH]c3ccccc23)Cc2ccccc2C1 (configuration not stated)

*A*
9.14
1.67

The following molecules each have a reported value; give each one's hERG blockade.
1. CC(C)Cn1cnc2c(SCc3ccccn3)nc(N)nc21
2. c1cncc(CNc2ncn[nH]2)c1
3. Oc1cc(CN2COc3ccccc32)c(O)cc1CNC1CCCCC1
4. Nc1ncnc2nc[nH]c12.Nc1ncnc2nc[nH]c12.[Cl][Pt]([Cl])([Cl])[Cl]
5. C=C(C)CN(CC#N)CC(=C)C
6. CC(C)c1cc(C(F)(F)F)nc(NNc2nc(C(C)C)cc(C(F)(F)F)n2)n1

*A*
1. -2.95
2. -6.56
3. 6.98
4. 0.497
5. -3.17
6. 7.39

*Q* Please report the recorded hERG blockade for Cc1cc(=Nc2ccc3c(c2)c(N)cc(C)[n+]3C)nc(N)n1C .
*A* 30.2
